B1: Homeobox protein cut-like 1, residues 548 to 629; numbered along this chain, P39880 (parent)
chain: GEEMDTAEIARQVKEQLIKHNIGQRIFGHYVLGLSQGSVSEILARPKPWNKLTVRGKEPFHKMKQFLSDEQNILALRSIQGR

variants of: B1; assay: abundance fitness (aPCA) (normalised: wild type 0, dead -1); higher = more abundant; growth selection in yeast, the domain comes from the species named; conditions: Homo sapiens
The following variants are listed with their measured abundance fitness values.
Reply briefly: the number, and no unit.

IN: Reported abundance fitness, variant `E41Y` : ____
OUT: -0.412

IN: Reported abundance fitness, variant `G56H` : ____
OUT: -0.352

IN: Reported abundance fitness, variant `M4G` : ____
OUT: -0.523

IN: Reported abundance fitness, variant `Y30G` : ____
OUT: -0.552

IN: Reported abundance fitness, variant `E70S` : ____
OUT: -0.083

IN: Reported abundance fitness, variant `S68F` : ____
OUT: -0.187

IN: Reported abundance fitness, variant `S40F` : ____
OUT: -0.162

Origin of the recorded values: the Human Domainome abundance scans (Beltran et al. 2025)
